From: paper PMC10718076

# testDetails: in vitro
# protocolConditions: both, human, microsomes, pH 7.4
measurementName: microsomal CLint at 2 μM
# answer = value followed by unit

**Q:** Returns the measured microsomal CLint at 2 μM for the input compound. Input: O=C(O)Cc1ccccc1Nc1c(Cl)cccc1Cl [Diclofenac]
**A:** 272 µL/min/mg

**Q:** Repeat with Cc1nc2c([nH]1)-c1ccccc1N(C(=O)c1ccc(NC(=O)c3ccccc3-c3ccccc3)cc1)CC2 [Conivaptan, conivaptan]
**A:** 31 µL/min/mg

* * *

# testDetails: Metabolic stability in human liver microsomes
# protocolConditions: both, liver microsomes (pooled), pH 7.4, % Remaining, Mean of 2, 7 min, Table S6, 1st batch
measurementName: remaining at […], 2 µM (%)
Answer in %, number only, no unit symbol.

**Q:** State the recorded remaining at […], 2 µM for this entry: Cn1cc(C(=O)NC2CC3CC2(c2cc(F)c(F)c(F)c2)C3)c(C(F)F)n1 (centres unmarked)
**A:** 70

**Q:** Now give it for O=C(NC1CCN(CCCCC2(C(=O)NCC(F)(F)F)c3ccccc3-c3ccccc32)CC1)C1CC2CC1(c1ccc(C(F)(F)F)cc1)C2 (centres unmarked) too.
**A:** 47

**Q:** Now the same for Cn1cc(C(=O)NC2CC3CC2(c2ccc(Cl)c(Cl)c2)C3)c(C(F)F)n1 (centres unmarked)
**A:** 83

**Q:** # iterate: O=C(NC1CC2CC1(c1ccc(Cl)cc1)C2)c1cccnc1Cl (centres unmarked)
**A:** 88

**Q:** What do you get for Cc1nc2c([nH]1)CCN(C(=O)c1ccc(NC(=O)C3CC4CC3(c3ccccc3)C4)cc1)c1ccccc1-2 (centres unmarked) ?
**A:** 81

* * *

# protocolConditions: Table S5, injection 1, octanol/PBS pH 7.4
measurementName: D
The answer should be written as a number, with no unit following it.

**Q:** Quick one: D of O=C(NC1CCN(CCCCC2(C(=O)NCC(F)(F)F)c3ccccc3-c3ccccc32)CC1)c1ccccc1-c1ccc(C(F)(F)F)cc1 [Lomitapide, lomitapide] ?
**A:** 5.98E+08

**Q:** Then O=C(Nc1ccccc1-c1ccc(Cl)cc1)c1cccnc1Cl [Boscalid, boscalid] ?
**A:** 3.62E+03

**Q:** Thanks! And Cc1nc2c([nH]1)-c1ccccc1N(C(=O)c1ccc(NC(=O)c3ccccc3-c3ccccc3)cc1)CC2 [Conivaptan, conivaptan] ?
**A:** 1.98E+04

**Q:** Now this one: O=C(NC1CC2CC1(c1ccc(Cl)cc1)C2)c1cccnc1Cl (stereo not shown) [Compound 28]
**A:** 3.84E+03

**Q:** How about Cn1cc(C(=O)Nc2ccccc2-c2cc(F)c(F)c(F)c2)c(C(F)F)n1 [Fluxapyroxad, fluxapyroxad] ?
**A:** 3.37E+03

**Q:** # repeat for O=C(NC1CCN(CCCCC2(C(=O)NCC(F)(F)F)c3ccccc3-c3ccccc32)CC1)C1CC2CC1(c1ccc(C(F)(F)F)cc1)C2 (stereo not shown) [Compound 27]
**A:** 7.79E+03

**Q:** For Cn1cc(C(=O)NC2CC3CC2(c2cc(F)c(F)c(F)c2)C3)c(C(F)F)n1 (stereo not shown) [Compound 30] then?
**A:** 4.08E+03

* * *

# testDetails: Metabolic stability in human liver microsomes
# protocolConditions: both, liver microsomes (pooled), pH 7.4, % Remaining, Mean of 2, 40 min, Table S6, 1st batch
measurementName: remaining at 40 min, 2 µM (%)
# number only, unit % dropped from output

**Q:** Need remaining at 40 min, 2 µM, item Cn1cc(C(=O)NC2CC3CC2(c2ccc(Cl)c(Cl)c2)C3)c(C(F)F)n1 (centres unmarked)
**A:** 54

**Q:** Query O=C(NC1CCN(CCCCC2(C(=O)NCC(F)(F)F)c3ccccc3-c3ccccc32)CC1)C1CC2CC1(c1ccc(C(F)(F)F)cc1)C2 (centres unmarked) next
**A:** 5

**Q:** Continue with Cn1cc(C(=O)NC2CC3CC2(c2cc(F)c(F)c(F)c2)C3)c(C(F)F)n1 (centres unmarked)
**A:** 35

**Q:** What would you report for O=C(NC1CC2CC1(c1ccc(Cl)cc1)C2)c1cccnc1Cl (centres unmarked) ?
**A:** 61

**Q:** Now the same for Cc1nc2c([nH]1)CCN(C(=O)c1ccc(NC(=O)C3CC4CC3(c3ccccc3)C4)cc1)c1ccccc1-2 (centres unmarked)
**A:** 76
